Reference source: ChEMBL document CHEMBL1201862

System: RXF 393
Assay: NCI tumour cell line growth inhibition, 48 h
Calls of active or inactive are those of the source. No stated cut-off is given here; in the data, active = GI50 up to about 1.1 µM and inactive = higher.
Observable: GI50

# example entries with known answers
Molecule: C[n+]1c(-c2ccc(NC(=O)c3ccc(C(=O)Nc4ccc(-c5cn6ccccc6[n+]5C)cc4)cc3)cc2)cn2ccccc21
Observable: GI50
Result: 39.6 µM (inactive)
--
Molecule: COc1ccc(/C=C2\N=C3Sc4c([nH]cnc4=O)N3C2=O)cc1
Observable: GI50
Result: > 100 µM (inactive)
--
Molecule: CC(C)COP(=O)(OCC(C)C)C(NS(=O)(=O)c1ccccc1)(C(F)(F)F)C(F)(F)F
Observable: GI50
Result: 3.96 µM (inactive)
--
Molecule: COc1ccc(/C=C2\CCC(C)C3=C2NC(=S)NC3c2ccc(OC)c(OC)c2)cc1OC (stereo not given)
Observable: GI50
Result: > 10 µM (inactive)
--
Molecule: Cc1nc2c(=O)n(C)c(=O)nc-2n(CCO)c1C
Observable: GI50
Result: > 100 µM (inactive)
--
Molecule: Cc1c(N=NN(C)C)cc[n+]([O-])c1C
Observable: GI50
Result: > 100 µM (inactive)
--
Molecule: CCOC(=O)c1c(-c2ccccc2)c(C)cn1C
Observable: GI50
Result: > 10 µM (inactive)
--
Molecule: S=P(c1ccccc1)(c1ccccc1)C1(C2(P(=S)(c3ccccc3)c3ccccc3)CC2)CC1
Observable: GI50
Result: > 100 µM (inactive)

What does the record list as GI50 for CN(C)Cc1cc(C=O)cc(CN(C)C)c1O ?
> 100 µM (inactive)

One more molecule: COCN1C(N)=C(C(=O)OC(C)(C)C)C2=CC(=O)C=CC21C (stereo not given)
6.25 µM (inactive)

---

Test system: Hs-578T
Assay: NCI tumour cell line growth inhibition, 48 h
The source made the active and inactive calls. Rule as the data show it: active = GI50 up to about 1.1 µM and inactive = higher.
Your answer must be one of the following: active, inactive

Compound: CCN(CC)Cc1nc(C2CCC([N+](=O)[O-])O2)no1 (stereo not drawn)
System Tested: Hs-578T
Class: inactive

Any idea what this test logged for O=C(O)c1cccc(S(=O)(=O)NN2C(=O)CSC2c2ccccc2)c1 (stereo not drawn) ?
inactive

One more compound: O=C(O)c1ccc(Nc2ccnc3cc(Cl)ccc23)cc1O
inactive

One more compound: Cc1cc(S(=O)(=O)Nc2nnc3c4ccccc4cnn23)c(S)cc1Cl
inactive

One more compound: C=C(C)[C@H]1CC(=O)/C(C)=C\CC/C(C)=C/CC[C@@]2(C)O[C@@H]2C1
inactive

One more compound: N#CC(=N)c1ncn(CCO)c1NC(=O)C(F)(F)F
inactive

One more compound: CC(=O)NC1C(OC(C)C(=O)NC(C(=O)NC(CCC(=O)NCCCNC2c3ccccc3Nc3cccc([N+](=O)[O-])c32)C(N)=O)C(C)C)C(O)C(CO)OC1(C)OCc1ccccc1 (stereo not drawn)
inactive

One more compound: CC(=O)OC1CN2CCC1CC2 (stereo not drawn)
inactive

---

Test system: PC-3
Test: NCI tumour cell line growth inhibition, 48 h
The source made the active and inactive calls. No stated cut-off is given here; in the data, active = GI50 up to about 1.1 µM and inactive = higher.
Observable: GI50

Tell me reported GI50 for O=P1(N2CCOCC2)OCCO1 , tested with PC-3.
> 100 µM (inactive)

One more compound: CCCCCCSc1nc(COC(=O)NC)c(COC(=O)NC)n1C
> 100 µM (inactive)

One more compound: CCc1nc2ccc(C(F)(F)F)cc2[nH]c1=O
> 100 µM (inactive)

---

Test system: SNB-19
Assay: NCI tumour cell line growth inhibition, 48 h
Calls of active or inactive are those of the source. No stated cut-off is given here; in the data, active = GI50 up to about 1.1 µM and inactive = higher.
Observable: GI50

What does the record list as GI50 for O=C(NC(c1ccccc1)C(O)C(=O)OCc1ccc2c(c1)C(=O)c1ccccc1C2=O)c1ccccc1 (centres undefined) ?
5.47 µM (inactive)

One more molecule: COP(=O)(OC)[C@H](O)[C@H]1C[C@@H]1c1ccccc1
> 100 µM (inactive)

One more molecule: C=C1CC(Cn2ccc(=O)[nH]c2=O)(c2ccc(Cl)cc2)OC1=O (centres undefined)
31.4 µM (inactive)

One more molecule: CC(=O)Oc1cc2c(=O)oc3c(OC(C)=O)c(OC(C)=O)c(OC(C)=O)c4c(=O)oc(c1OC(C)=O)c2c34
73.8 µM (inactive)

---

System: NCI-H226
Assay: NCI tumour cell line growth inhibition, 48 h
The source made the active and inactive calls. Rule as the data show it: active = GI50 up to about 1.1 µM and inactive = higher. Peptide text beside a SMILES is read from it. * marks the point of attachment. Boc = CC(C)(C)OC(=O)*
Observable: GI50

# example entries with known answers
Molecule: COc1cccc(/C=C2\CCCc3ccccc3C2=O)c1
System Tested: NCI-H226
Result: 18.8 µM (inactive)
//
Molecule: CC12CC3c4ccccc4CN1C3(c1ccccc1)OC2=O (configuration not stated)
System Tested: NCI-H226
Result: > 100 µM (inactive)
//
Molecule: CC(=O)NC(Cc1c[nH]c2ccccc12)C(=O)O (configuration not stated)
System Tested: NCI-H226
Result: > 100 µM (inactive)

What does the record list as GI50 for CC12OOC(c3ccccc31)c1c2ccc2ccccc12 (configuration not stated) ?
18.7 µM (inactive)

One more molecule: COc1ccc(C=O)c(N(C)C(=O)C(C)(C)C)c1
> 100 µM (inactive)

One more molecule: CSCCC(NC(=O)C(CC(C)C)NC(=O)CNC(=O)OC(C)(C)C)C(=O)N(C)C (stereo not drawn) (Boc-Gly-Leu-Met-NMe2; configuration not given here)
> 100 µM (inactive)

One more molecule: CCOC(=O)C1C(c2ccc(Cl)cc2Cl)NC(c2ccc(C)cc2)C(C(=O)OC)S1(=O)=O (configuration not stated)
76.4 µM (inactive)

---

System: DU-145
Experiment: NCI tumour cell line growth inhibition, 48 h
Activity calls are given as the source filed them. Cut-off read from the data, not from the text of the source: active = GI50 up to about 1.1 µM and inactive = higher.
Collected GI50 values appear next to each entry.

Compound: O=C(O)CN(CCNC(=O)OCC1c2ccccc2-c2ccccc21)CCNC(=O)OCC1c2ccccc2-c2ccccc21
System Tested: DU-145
GI50: 19.9 µM (inactive)

Compound: COC(CNC(=O)C(C)NC(=O)/C=C/c1ccccc1)OC (stereo not given)
System Tested: DU-145
GI50: > 100 µM (inactive)

Compound: Clc1ccc(Nc2nnc(CNc3ccc(-c4nnc(Nc5ccc(Cl)cc5)o4)cc3)o2)cc1
System Tested: DU-145
GI50: 12.7 µM (inactive)

Compound: Cc1cccc(C[C@@]2(SCc3ccccc3)C(C)(C)[C@@H]3CC[C@@]2(C)C3)n1
System Tested: DU-145
GI50: 16.9 µM (inactive)

// next entry
What does the record list as GI50 for CC(=O)CC1CCC(=O)/C=C/C(=O)OC(CC(C)=O)CCC(=O)/C=C/C(=O)O1 (stereo not given) ?
19.6 µM (inactive)

---

System: RPMI-8226
Experiment: NCI tumour cell line growth inhibition, 48 h
Active and inactive are the calls of the source. Rule as the data show it: active = GI50 up to about 1.1 µM and inactive = higher. Where a SMILES comes first, the peptide text is derived from it. [ ]: non-standard residue; d: D form. The star is where a group is joined. Bn2Val = CC(C)[C@@H](C(=O)*)N(Cc1ccccc1)Cc1ccccc1; NH(4-F-benzyl) = Fc1ccc(CN*)cc1; NMeV = CN[C@H](C(=O)O)C(C)C; dNMeA = CN[C@H](C)C(=O)O
Your answer must be one of the following: TRUE = active, FALSE = inactive

Recorded results for 10 compounds are shown here.
Compound: COc1ccc(N/N=C2\C3=C(CCC(C)(C)O3)C(=O)c3ccccc32)cc1
Class: FALSE
//
Compound: COc1cc(C2c3cc4c(cc3[C@@H](Nc3cccc(C(C)=O)c3)C3COC(=O)[C@H]23)OCO4)cc(OC)c1O (some centres undefined)
Class: TRUE
//
Compound: O=C1Cc2c(-c3ccccc3)cc(-c3cccc(Cl)c3)nc2-c2ccccc2N1
Class: FALSE
//
Compound: COC(=O)n1c(C[P+](c2ccccc2)(c2ccccc2)c2ccccc2)cc2ccccc21
Class: TRUE
//
Compound: CCOC(=O)/C(C(=O)Nc1ccc(Cl)cc1)=C(/N)N1CCCC1
Class: FALSE
//
Compound: Cc1cc(N(CCC#N)CCC#N)ccc1/C=N\c1ccc(C(=O)NN2C(=O)/C(=C/c3ccc(N(CCC#N)CCC#N)cc3)N=C2c2cc([N+](=O)[O-])ccc2Cl)cc1
Class: FALSE
//
Compound: NC1=NN(c2ccccc2)C2(O)c3ccncc3C3=NN(c4ccccc4)C(=O)C132 (centres undefined)
Class: FALSE
//
Compound: Cc1c(-c2ccc(O)cc2)n(CCCCCCNCCOC(=O)NCCCc2ccc(N(CCCl)CCCl)cc2)c2ccc(O)cc12
Class: FALSE
//
Compound: CCCNC(=O)CCC(C)[C@H]1CCC2C3C(C[C@H](OC(C)=O)[C@@]21C)[C@@]1(C)CCC2(C[C@H]1C[C@H]3OC(C)=O)OOC1(CCC(C)CC1)OO2 (some centres undefined)
Class: FALSE
//
Compound: CC(NC(=O)c1ccc(Cl)c(Cl)c1)c1ccc(-c2ccccc2)cc1 (centres undefined)
Class: FALSE

Any idea what this test logged for C/C(=N/NC(N)=S)c1ccc[nH]1 ?
FALSE

One more compound: CC(C)[C@H](NC(=O)[C@H](C(C)C)N(Cc1ccccc1)Cc1ccccc1)C(=O)N(C)[C@H](C(=O)N1CCC[C@H]1C(=O)N(C)[C@H](C)C(=O)NCc1ccc(F)cc1)C(C)C (Bn2Val-V[NMeV]P[dNMeA]-{NH(4-F-benzyl)})
FALSE
